I'd be grateful if you could share measured IC50 for these entries.
- MEASURED TARGET: Mu-type opioid receptor (Homo sapiens)
- Sequence (P35372 whole entry): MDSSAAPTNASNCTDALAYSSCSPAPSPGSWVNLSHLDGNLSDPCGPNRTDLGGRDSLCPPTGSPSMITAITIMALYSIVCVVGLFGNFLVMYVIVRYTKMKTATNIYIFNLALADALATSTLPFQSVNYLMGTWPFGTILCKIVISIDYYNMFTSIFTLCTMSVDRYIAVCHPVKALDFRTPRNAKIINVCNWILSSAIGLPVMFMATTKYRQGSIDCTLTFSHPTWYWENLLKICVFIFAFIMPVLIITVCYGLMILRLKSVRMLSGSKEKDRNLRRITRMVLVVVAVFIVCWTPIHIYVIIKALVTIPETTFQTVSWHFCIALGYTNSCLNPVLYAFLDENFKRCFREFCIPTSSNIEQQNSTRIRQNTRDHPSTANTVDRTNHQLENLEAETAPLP
- MEASUREMENT PROTOCOL: Displacement of [3H]-naltrindole from human mu opioid receptor expressed in CHO cells after 2 hrs by scintillation counting
- Format: cell-based
Answers are plain numbers, in nM.

>>> number("Cc1cc(N)c2cc(NC(=O)c3ccccc3COc3ccc(CNCCCCCCCNCc4ccc(OCc5ccccc5C(=O)Nc5ccc6nc(C)cc(N)c6c5)cc4)cc3)ccc2n1")
1040

Consider the following items and state reported IC50 for each.
1. CCCNCc1ccc(OCc2ccccc2C(=O)Nc2ccc3nc(C)cc(N)c3c2)cc1
2. CCCCCCCNCc1ccc(OCc2ccccc2C(=O)Nc2ccc3nc(C)cc(N)c3c2)cc1
3. CCc1ccc(OCc2ccccc2C(=O)Nc2ccc3nc(C)cc(N)c3c2)cc1

Reply:
3350
1980
1510
